tested on: HOP-62 NSCLC; assay: NCI-60 one-dose screen, 48 h (100 = growth as untreated, 0 = no growth, -100 = all killed); details: 10 µM unless noted
This is part of a sample that, as a whole, favours compounds with a hit. Of some 83,000 tested, about 20% had one in any assay.
endpoint_label: growth (%)
Numbers only, in %.

# compound, target_system, growth / %
records = [
    ("COc1cc(C2C=C(C)N=C3SC(C)=NN32)cc(OC)c1OC (stereo not given)", "HOP-62 NSCLC", 95.9),
    ("NS(=O)(=O)c1ccc(CN2C(=O)c3cccc4cccc(c34)C2=O)cc1", "HOP-62 NSCLC", 81.8),
    ("Clc1ccc([I+]c2ccc(Cl)cc2Cl)c(Cl)c1", "HOP-62 NSCLC", 36.5),
    ("CCN(Cc1ccccc1)c1ccc(SC#N)cc1", "HOP-62 NSCLC", 118),
    ("Clc1nc2ccccc2nc1CI", "HOP-62 NSCLC", 105),
    ("O=C(Nc1cc(C(F)(F)F)cc(C(F)(F)F)c1)Nc1ccc(OCc2nnc(-c3ccc(Cl)cc3)o2)c(F)c1", "HOP-62 NSCLC", 10.3),
    ("COc1cc(NC(=O)CSc2nc3ccc(C)cc3c(=O)n2-c2ccccc2)cc(OC)c1OC", "HOP-62 NSCLC", 91.2),
    ("COc1c(NC[C@H]2OC(O)[C@H](O)[C@@H](O)[C@@H]2O)c(=O)c1=O (stereo not given in full)", "HOP-62 NSCLC", 102),
    ("COc1cccc(/C=C/C(=O)c2sc(Nc3ccc(O)cc3)nc2C)c1", "HOP-62 NSCLC", 107),
]

// growth value for `CCOP(=O)(CCN1CCN(CCCCCOc2cc3c(cc2OC)C(=O)N2CCC[C@H]2C=N3)CC1)OCC` : 109
